# target_or_system: NS3/NS4 complexes (Hepatitis C virus genotype 1a, UniProt P27958)
# Sequence (P27958 1027-1657): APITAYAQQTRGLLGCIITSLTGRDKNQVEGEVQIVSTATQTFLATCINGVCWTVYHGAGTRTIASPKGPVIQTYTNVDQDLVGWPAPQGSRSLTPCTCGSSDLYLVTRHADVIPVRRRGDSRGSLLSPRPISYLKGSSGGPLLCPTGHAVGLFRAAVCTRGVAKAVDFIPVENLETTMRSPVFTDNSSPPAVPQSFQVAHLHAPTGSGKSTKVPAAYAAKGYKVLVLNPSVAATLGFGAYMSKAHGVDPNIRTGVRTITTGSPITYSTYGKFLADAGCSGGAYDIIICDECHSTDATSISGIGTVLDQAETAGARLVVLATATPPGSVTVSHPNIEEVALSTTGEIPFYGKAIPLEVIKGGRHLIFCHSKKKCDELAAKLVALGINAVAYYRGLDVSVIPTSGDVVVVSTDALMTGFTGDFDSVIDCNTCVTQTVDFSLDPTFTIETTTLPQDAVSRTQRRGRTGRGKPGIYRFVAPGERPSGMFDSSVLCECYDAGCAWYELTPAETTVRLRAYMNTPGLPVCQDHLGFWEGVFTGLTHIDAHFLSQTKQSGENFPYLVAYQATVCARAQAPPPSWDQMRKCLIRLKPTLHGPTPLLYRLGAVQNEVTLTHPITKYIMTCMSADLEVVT
# Sequence (P27958 1658-1711): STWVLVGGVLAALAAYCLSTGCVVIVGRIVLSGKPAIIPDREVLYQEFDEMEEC
# assay_details: NS3/NS4 inhibition activity (IC50)
# Assay type: biochemical
# assay_conditions: Table 3, read-out: IC50
Reported IC50 values are given for each entry in this list.

IC50 reported for this molecule CC(C)(C)OC(=O)N[C@H]1CCCCC/C=C\[C@@H]2C[C@@]2(C(=O)NS(=O)(=O)C2(C)CC2)NC(=O)[C@@H]2C[C@@H](Oc3nc4ccccc4[nH]3)CN2C1=O [Compound 1079] : < 10 nM

Continuing:
IC50 reported for this molecule CC1(S(=O)(=O)NC(=O)[C@@]23C[C@H]2/C=C\CCCCC[C@H](Nc2ccc(OC(F)(F)F)cc2)C(=O)N2C[C@H](OC(=O)N4Cc5cccc(F)c5C4)C[C@H]2C(=O)N3)CC1 [Compound 1119] : < 10 nM

IC50 reported for this molecule CC(=O)Nc1cccc(N[C@H]2CCCCC/C=C\[C@@H]3C[C@@]3(C(=O)NS(=O)(=O)C3(C)CC3)NC(=O)[C@@H]3C[C@@H](OC(=O)N4Cc5cccc(F)c5C4)CN3C2=O)c1 [Compound 1110] : < 10 nM

IC50 reported for this molecule CC(C)(C)OC(=O)N[C@H]1CCCCCCC[C@@H]2C[C@@]2(C(=O)NS(=O)(=O)C2(C)CC2)NC(=O)[C@@H]2C[C@@H](OC(=O)N3Cc4cccc(F)c4C3)CN2C1=O [Compound 1081] : < 10 nM

IC50 reported for this molecule CC(C)(C)OC(=O)N[C@H]1CCCCC/C=C\[C@@H]2C[C@@]2(C(=O)NS(=O)(=O)C2(C)CC2)NC(=O)[C@@H]2C[C@@H](OC(=O)N3CCCC3)CN2C1=O [Compound 1072] : < 10 nM

IC50 reported for this molecule CC(C)(C)OC(=O)N[C@H]1CCCCC/C=C\[C@@H]2C[C@@]2(C(=O)NS(=O)(=O)C2(C)CC2)NC(=O)[C@@H]2C[C@@H](Oc3nc4ccc(F)cc4s3)CN2C1=O [Compound 1011] : < 10 nM

---

# System: hepatitis C replicon
# assay_details: hepatitis C replicon EC50
# Format: cell-based
# assay_conditions: Hepatitis C virus; Table 2; hepatitis C replicon; read-out: EC50
pEC50: −log10 of the molar value.
Reported pEC50 values are given for each entry in this list.

Observe how each entry below is paired with its result.
pEC50 reported for this molecule "CC(C)(C)c1csc(N[C@H]2CCCCC/C=C\[C@@H]3C[C@@]3(C(=O)NS(=O)(=O)C3(C)CC3)NC(=O)[C@@H]3C[C@@H](Oc4nc5ccccc5s4)CN3C2=O)n1" : 7.12 to 8.00

pEC50 reported for this molecule "CC1(S(=O)(=O)NC(=O)[C@@]23C[C@H]2/C=C\CCCCC[C@H](Nc2ccccc2)C(=O)N2C[C@H](Oc4nc5ccc(Br)cc5s4)C[C@H]2C(=O)N3)CC1" : 6.30 to 7.12

pEC50 reported for this molecule "CC1(S(=O)(=O)NC(=O)[C@@]23C[C@H]2/C=C\CCCCC[C@H](Nc2ccc(F)c(F)c2)C(=O)N2C[C@H](Oc4nccc5ccccc45)C[C@H]2C(=O)N3)CC1" : 7.12 to 8.00

Continuing:
pEC50 reported for this molecule "CC1(S(=O)(=O)NC(=O)[C@@]23C[C@H]2/C=C\CCCCC[C@H](Nc2cccc(C(F)(F)F)c2)C(=O)N2C[C@H](Oc4nc5ccc(Br)cc5s4)C[C@H]2C(=O)N3)CC1" : 6.30 to 7.12

pEC50 reported for this molecule "CC1(S(=O)(=O)NC(=O)[C@@]23C[C@H]2/C=C\CCCCC[C@H](Nc2cccc(OC(F)(F)F)c2)C(=O)N2C[C@H](Oc4nccc5ccccc45)C[C@H]2C(=O)N3)CC1" : 7.12 to 8.00

---

# target_or_system: NS3/NS4 complexes (Hepatitis C virus genotype 1a)
# assay_details: NS3/NS4 inhibition activity (IC50)
# Type: biochemical
# assay_conditions: Table 2, read-out: IC50
# Source text: NS3-NS4 inhibition activity can be determined using known assay methods. For example, NS3/NS4 complexes may be formed and inhibitory concentrations of test compounds determined as described in U.S. Patent Application Publication Number 2007/0054842 paragraph numbers 1497-1509, which is incorporated herein by reference in its entirety. […]
pIC50: −log10 of the molar value.
Reported pIC50 values are given for each entry in this list.

pIC50 reported for this compound Cc1ccc2nc(O[C@@H]3C[C@H]4C(=O)N[C@]5(C(=O)NS(=O)(=O)C6(C)CC6)C[C@H]5/C=C\CCCCC[C@H](Nc5cccc(C(F)(F)F)c5)C(=O)N4C3)sc2c1 [Compound 227] : > 8.00

pIC50 reported for this compound COc1cccc(N[C@H]2CCCCC/C=C\[C@@H]3C[C@@]3(C(=O)NS(=O)(=O)C3(C)CC3)NC(=O)[C@@H]3C[C@@H](Oc4cc(-c5nc(C(C)C)cs5)nc5c(C)c(OC)ccc45)CN3C2=O)c1 [Compound 478] : > 8.00

pIC50 reported for this compound COc1ccc2c(O[C@@H]3C[C@H]4C(=O)N[C@]5(C(=O)NS(=O)(=O)N(C)C)C[C@H]5/C=C\CCCCC[C@H](Nc5cccc(C(F)(F)F)c5)C(=O)N4C3)cc(-c3nc(C(C)C)cs3)nc2c1C [Compound 457] : > 8.00

Continuing:
pIC50 reported for this compound COc1ccc2c(O[C@@H]3C[C@H]4C(=O)N[C@]5(C(=O)NS(=O)(=O)C6(C)CC6)C[C@H]5/C=C\CCCCC[C@H](Nc5ccccc5)C(=O)N4C3)cc(-c3ccccc3)nc2c1 [Compound 220] : > 8.00

pIC50 reported for this compound CC1(S(=O)(=O)NC(=O)[C@@]23C[C@H]2/C=C\CCCCC[C@H](Nc2cc(Cl)cc(Cl)c2)C(=O)N2C[C@H](Oc4nc5ccccc5s4)C[C@H]2C(=O)N3)CC1 [Compound 340] : > 8.00

pIC50 reported for this compound COc1ccc2c(O[C@@H]3C[C@H]4C(=O)N[C@]5(C(=O)NS(=O)(=O)N(C)C)C[C@H]5/C=C\CCCCC[C@H](Nc5cc(F)cc(C(F)(F)F)c5)C(=O)N4C3)cc(-c3nc(C(C)C)cs3)nc2c1C [Compound 460] : > 8.00

pIC50 reported for this compound CC1(S(=O)(=O)NC(=O)[C@@]23C[C@H]2/C=C\CCCCC[C@H](Nc2cccc(C(F)(F)F)c2)C(=O)N2C[C@H](Oc4nccc5ccccc45)C[C@H]2C(=O)N3)CC1 [Compound 230] : > 8.00

pIC50 reported for this compound CC(C)Cn1c(O[C@@H]2C[C@H]3C(=O)N[C@]4(C(=O)NS(=O)(=O)C5(C)CC5)C[C@H]4/C=C\CCCCC[C@H](Nc4cc(F)cc(C(F)(F)F)c4)C(=O)N3C2)nc2ccccc21 [Compound 402] : > 8.00

pIC50 reported for this compound O=C1N[C@]2(C(=O)O)C[C@H]2/C=C\CCCCC[C@H](Nc2cc(C(F)(F)F)cc(C(F)(F)F)c2)C(=O)N2C[C@H](Oc3nc4ccccc4s3)C[C@@H]12 [Compound 338] : 6.30 to 7.12

pIC50 reported for this compound O=C1N[C@]2(C(=O)O)C[C@H]2/C=C\CCCCC[C@H](Nc2cccc(Cl)c2)C(=O)N2C[C@H](Oc3nc4ccccc4s3)C[C@@H]12 [Compound 335] : 7.12 to 8.00

---

# Test system: hepatitis C replicon
# assay_details: hepatitis C replicon EC50
# Format: cell-based
# assay_conditions: Hepatitis C virus; Table 2; hepatitis C replicon; read-out: EC50
pEC50: −log10 of the molar value.
Reported pEC50 values are given for each entry in this list.

Readout pEC50 for "Cc1ccc2nc(O[C@@H]3C[C@H]4C(=O)N[C@]5(C(=O)NS(=O)(=O)C6(C)CC6)C[C@H]5/C=C\CCCCC[C@H](Nc5cc(F)cc(C(F)(F)F)c5)C(=O)N4C3)sc2c1" , test system hepatitis C replicon, was 6.30 to 7.12

Readout pEC50 for "CCn1c(O[C@@H]2C[C@H]3C(=O)N[C@]4(C(=O)NS(=O)(=O)C5CC5)C[C@H]4/C=C\CCCCC[C@H](Nc4cc(F)cc(C(F)(F)F)c4)C(=O)N3C2)nc2ccccc21" , test system hepatitis C replicon, was 7.12 to 8.00

Continuing:
Readout pEC50 for "COc1ccc2c(O[C@@H]3C[C@H]4C(=O)N[C@]5(C(=O)NS(=O)(=O)C6(C)CC6)C[C@H]5/C=C\CCCCC[C@H](Nc5cccc(OC(F)(F)F)c5)C(=O)N4C3)cc(-c3ccccc3)nc2c1" , test system hepatitis C replicon, was > 8.00

---

# target_or_system: NS3/NS4 complexes (Hepatitis C virus genotype 1a, UniProt P27958)
# assay_details: NS3/NS4 inhibition activity (IC50)
# Assay type: biochemical
# assay_conditions: Table 2, read-out: IC50
Reported IC50 values are given for each entry in this list.

IC50 reported for this compound "O=C1N[C@]2(C(=O)O)C[C@H]2/C=C\CCCCC[C@H](Nc2cccc(F)c2)C(=O)N2C[C@H](Oc3nc4ccccc4s3)C[C@@H]12" : 75 to 500 nM

As a next step, examine the compound that follows.
IC50 reported for this compound "COc1ccc2c(O[C@@H]3C[C@H]4C(=O)N[C@]5(C(=O)NS(=O)(=O)C6CC6)C[C@H]5/C=C\CCCCC[C@H](Nc5ccc(F)c(C(F)(F)F)c5)C(=O)N4C3)cc(-c3nc(C(C)C)cs3)nc2c1C" : < 10 nM
